Hello, the source for this data is paper PMC4479705, in case you need it.

Assay target: recombinant factor H binding protein (FHbp) ID 1 (Neisseria meningitidis serogroup B …, UniProt Q9JXV4)
Sequence (Q9JXV4 20-274): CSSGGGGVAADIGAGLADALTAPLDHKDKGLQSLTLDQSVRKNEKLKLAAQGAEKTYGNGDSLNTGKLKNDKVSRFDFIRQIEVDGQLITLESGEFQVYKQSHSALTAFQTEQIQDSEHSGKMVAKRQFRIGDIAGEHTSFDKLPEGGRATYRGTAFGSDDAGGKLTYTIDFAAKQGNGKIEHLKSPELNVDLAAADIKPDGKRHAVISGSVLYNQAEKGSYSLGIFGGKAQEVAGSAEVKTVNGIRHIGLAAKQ
Test summary: SPR
Endpoint label: kon (M⁻¹ s⁻¹)
State the answer as a number, implicitly in M⁻¹ s⁻¹.

Please review the entries below; each comes with its answer.
Binder	kon, M⁻¹ s⁻¹
human anti-FHbp Fab 5B (Fab, V domains shown) VH: EVQLLESGGGLVQPGGSLRLSCAASGYTFGSYAMTWVRQGPGKGLEWVSTILGSGADTYYADSVKGRFTISRDNSRNTLFMQLSSLRAEDTAVYYCAKLGYYDTWGQGTLVTVSS VL: EIVLTQSPATLSLSPGERATLSCRASQSIASYLYWYQQKPGQAPRLLIFDASNRATGTPARFSGSGSGTDFTLTISSLEPEDFAVYYCQQRNNWPRALTFGGGTKVEIK	390000
human anti-FHbp Fab 2A (Fab, V domains shown) VH: QVQLQQSGSGLVKPSQTLSLTCTVSGGSINIGDRYWSWLRQSPGKGLEWIGYIDYSGDTYYNSSLKSRAAISIDTSNKQFSLKLSSVTAADTAVYYCARGSSDFSSGYFFDYWGQGTLVTVSS VL: ETTLTQSPATLSVSPGERAILSCRDSQSVSSNLAWYQQKPGQAPRLLIFGASTRATGIPARFSGSGSGTEFTLTISSLQSEDFAVYYCQQYNNWLSFGQGTKLEIK	530000

Query: What value of measured kon is listed for human anti-FHbp Fab 4B (Fab, V domains shown) VH: EVQLVESGGGLAQPGGSLRLSCVASGSTFGSYAIYWVRQAPGKGLEWVSGISGSGTKIDYADSVKGRFTISRDISKNTLYLQMNSLRAEDTAVYYCAKLGFFDYWGQGTQVTVSS VL: EIVLTQSPDTLSLSPGERATLSCRASQSVSTYLFWYQKKPGQAPRLLIFDASNRATGIPVRFSGSGSGTDFTLTISSLEPEDFAVYYCQQRSNWPQTFGGGTKVEIK ?
Reply: 720000

Query: What value of measured kon is listed for human anti-FHbp Fab 8A (Fab, V domains shown) VH: QVQLVESGGGLVQPGGSLRLSCVTSGFTFRSYAMTWVRQAPGKGLEWVSSISHSGGSTKYADSVKGRLTISRDDSMDTLYLQMNSLRAEDTAIYYCAKDQISYPAASPLDYWGRGTLVTVSS VL: EIVLTQSPGTLSLSPGERATLSCRASQSFSSFSLAWYQQKPGQAPRLLIYAPSNRATGIADRFSGSGSGTDFTLTISRLEPEDFAVYYCQQYGSSPITFGQGTRLEIK ?
Reply: 2.3e+06

Query: What value of measured kon is listed for control chimeric human-mouse anti-FHbp Fab 502 (Fab, V domains shown) VH: EVQLQESGPGLAKPSQTLSLTCSVTGYSITSDFWNWIRKFPGNKLEYMGYISYSGSTDYNPSLKSRISITRDTSKNQYYLQLNSVTAEDTATYYCARYFGSSYAMDHWGQGTSVTVSS VL: DIQMTQSPASLSASVGETVTITCRASGNIHNYLAWYQQKQGKSPQLLVYTAKTLAEGVPSRFSGSGSGTQFSLKINSLQPEDFGSYYCQHFWSTPWTFGGGTKLEIK ?
Reply: 1.09e+06
